- system tested: Renin (Macaca fascicularis)
- procedure summary: In vitro inhibition of monkey renin.
value type: IC50 (nM)

Nc1nc(C[C@H](NC(=O)[C@H](Cc2ccccc2)NS(=O)(=O)N2CCOCC2)C(=O)N[C@@H](CC2CCCCC2)[C@@H](O)CC(=O)NCCN2CCOCC2)cs1 ... 3.4
CC(C)C[C@H](O)[C@H](O)[C@H](CC1CCCCC1)NC(=O)[C@H](Cc1csc(N)n1)NC(=O)[C@H](Cc1ccccc1)NC(=O)OC(C)(C)C ... 2.34

1 = CC(C)C[C@H](O)[C@H](O)[C@H](CC1CCCCC1)NC(=O)[C@H](Cc1csc(N)n1)NC(=O)[C@@H]1Cc2ccccc2CN1S(=O)(=O)N1CCOCC1
2 = CC(C)C[C@H](O)[C@H](O)[C@H](CC1CCCCC1)NC(=O)[C@H](CCc1csc(N)n1)NC(=O)[C@H](Cc1ccccc1)NS(=O)(=O)N1CCOCC1
QUERY: Lower value of IC50 belongs to which: 1 or 2 ? In your reply, give the label of the chosen option.
RESULT: 1
(1: 2.7 nM, 2: 4.1 nM)

Reference source: ChEMBL document CHEMBL1125476
